Experiment: NOVARTIS: Cytotoxicity against human hepatocellular carcinoma cell line (Huh7)
Format: toxicity, cell-based, Huh-7
Details: Huh7 cells (hepatocellular carcinoma cell line)
Field: CC50. Provide a value for each of the compounds that follow.

Solved cases below.
O=C(O)c1ccc(C=NNc2ccc([N+](=O)[O-])cc2)cc1 ... > 10 µM
O=C(C=Cc1ccccc1)NNC(=O)c1cccnc1 ... > 100 µM
Nc1nonc1-n1nnc(C(=O)NN=Cc2cc(Br)cs2)c1-c1ccccc1 ... > 100 µM
Cc1cc(C)nc(NNc2c([N+](=O)[O-])cccc2[N+](=O)[O-])n1 ... 22 µM
CN[C@@H]1CC2O[C@@](C)([C@@H]1OC)n1c3ccccc3c3c4c(c5c6ccccc6n2c5c31)C(=O)NC4 ... 0.355 µM

For each of the items listed, what is its CC50?
1. Cc1c(C(=O)N2CCC(C)CC2)sc2ncn(CC(=O)N3CCN(c4ccccn4)CC3)c(=O)c12
2. CCCOC(=O)C1=C(C)NC2=C(C(=O)CC(c3ccc(OC)c(OC)c3)C2)C1c1ccc(Cl)cc1Cl (stereo not given)
3. COc1cccc(-c2ccc(O)c(CNC3CCN(Cc4ccccc4)CC3)c2)n1
4. O=C(Cc1ccsc1)N1CCOc2c(cc(-c3csc4ccccc34)cc2OCCc2ccccn2)C1
5. Cc1nc(NN=Cc2c(O)ccc3ccccc23)cc(N2CCCCC2)n1

Solution:
> 10 µM
> 100 µM
5.94 µM
> 100 µM
> 100 µM
